Taken from patent US12084472B2.

System name: human TGR5 (Homo sapiens, UniProt Q8TDU6)
Construct: expressed in transfected cells; host or cells: HEK293
Sequence (Q8TDU6 1-330): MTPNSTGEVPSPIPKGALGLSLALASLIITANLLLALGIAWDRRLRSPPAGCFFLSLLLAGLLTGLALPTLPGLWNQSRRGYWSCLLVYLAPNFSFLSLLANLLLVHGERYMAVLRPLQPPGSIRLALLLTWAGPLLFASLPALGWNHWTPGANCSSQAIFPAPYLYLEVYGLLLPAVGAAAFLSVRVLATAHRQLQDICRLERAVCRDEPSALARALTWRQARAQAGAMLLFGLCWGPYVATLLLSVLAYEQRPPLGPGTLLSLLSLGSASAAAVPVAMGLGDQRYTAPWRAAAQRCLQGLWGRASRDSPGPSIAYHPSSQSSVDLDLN
Measurement notes: Cell-based TGR5 assay (cAMP generation, HTRF)
Recorded conditions: HEK293 cells stably transfected with human TGR5; cAMP by HTRF; 30 minutes at 37° C.; read-out: pEC50 Human TGR5 (converted)
Reported EC50 values follow for various molecules

Guide cases for EC50, answers given:
CCC(=O)OC[C@H](NC(=O)NCCCCN(C)S(=O)(=O)c1ccc(Cl)c(COC2(c3cnccc3-c3ccccc3OC3CC3)CC2)c1)[C@@H](OC(=O)CC)[C@H](OC(=O)CC)[C@@H](COC(=O)CC)OC(=O)CC | 126 to 1000 nM
O=S(=O)(NCC(F)(F)F)c1ccc(Cl)c(COC2(c3cnccc3-c3ccccc3OC3CC3)CC2)c1 | < 100 nM
CCOC(=O)NCCN(CCCCSc1ccc(Cl)c(CNC2(c3cnccc3-c3ccccc3OC3CC3)CC2)c1)C(=O)[C@@H](O)[C@@H](O)[C@H](O)[C@@H](O)CO | < 100 nM
Cc1ccc(C(C)CCCN(C(=O)[C@@H](O)[C@@H](O)[C@H](O)[C@@H](O)CO)C2CCOCC2)cc1CNC1(c2cnccc2-c2ccccc2OC2CC2)CC1 (some centres unmarked) | < 100 nM
CN(CCCCCSc1ccc(Cl)c(COC2(c3cnccc3-c3ccccc3OC3CC3)CC2)c1)C(=O)[C@@H](O)[C@@H](O)[C@H](O)[C@@H](O)CO | < 100 nM
CN(CCCCNC(=O)NC[C@H](O)[C@@H](O)[C@H](O)[C@H](O)CO)S(=O)(=O)c1cc(CNC2(c3cnccc3-c3ccccc3OC3CC3)CC2)c(Cl)cc1Cl | < 100 nM
CCNC(=O)[C@@H](N)CCCCNS(=O)(=O)c1ccc(COC2(c3cnccc3-c3ccccc3OC3CC3)CC2)c(Cl)c1 | 126 to 1000 nM
CN(CCSc1ccc(Cl)c(CNC2(c3cnccc3-c3ccccc3OC3CC3)CC2)c1)C(=O)[C@@H](O)[C@@H](O)[C@H](O)[C@@H](O)CO | < 100 nM
CC(OCc1cc(S(=O)(=O)N(CCCCNC(=O)N[C@@H](CO)[C@@H](O)[C@H](O)[C@H](O)CO)C(C)C)ccc1Cl)c1cnccc1-c1ccccc1OC1CC1 (some centres unmarked) | < 100 nM
O=C([C@@H](O)[C@@H](O)[C@H](O)[C@@H](O)CO)N(CCCSc1ccc(Cl)c(CNC2(c3cnccc3-c3ccccc3OC3CC3)CC2)c1)C1CCOCC1 | 126 to 1000 nM

CC(CCCC(=O)NCCN1CCN(CC(=O)NC[C@H](O)[C@@H](O)[C@H](O)[C@H](O)CO)CC1)c1ccc(Cl)c(CNC2(c3cnccc3-c3ccccc3OC3CC3)CC2)c1 (some centres unmarked) yielded EC50 of < 100 nM
